- experimentSummary: Pharmacokinetics assay in rats after intragastrical administration
- Type: in vivo
- assayConditions: both sexes, Sprague-Dawley, rat, plasma, po, SD rats, 2 mg/kg, read-out: Apparent distribution volume Vz/F
Please note: T applies when Vd/F is 20 L/kg or greater, and F applies otherwise.

compoundString | className
Cc1cccc(-c2nn3c(c2-c2ccnc(-c4ccc(S(C)(=O)=O)cc4)c2)C2CCC3CC2)n1 | F
Cc1cccc(-c2nc3n(c2-c2ccnc(-c4ccc(S(C)(=O)=O)cc4)c2)[C@H]2CC[C@@H]3C2)n1 | F
Cc1cccc(-c2nc3n(c2-c2ccc4nccc(C(N)=O)c4c2)[C@H]2CC[C@@H]3C2)n1 | T
Cc1cccc(-c2nc3n(c2-c2ccc4nccc(C(N)=O)c4c2)[C@@H]2CC[C@H]3C2)n1 | F
NC(=O)c1ccnc2ccc(-c3c(-c4ccc(F)cn4)nc4n3[C@H]3CC[C@@H]4C3)cc12 | F
Cc1cccc(-c2nc3n(c2-c2ccc4nnc(C(N)=O)n4c2)[C@H]2CC[C@@H]3C2)n1 | F

Values from patent US10906905B2
